Let's look at some compounds and their measured IC50.
- target of assay: DNA topoisomerase 1 (Mus musculus, UniProt Q04750)
- Sequence (Q04750 whole entry): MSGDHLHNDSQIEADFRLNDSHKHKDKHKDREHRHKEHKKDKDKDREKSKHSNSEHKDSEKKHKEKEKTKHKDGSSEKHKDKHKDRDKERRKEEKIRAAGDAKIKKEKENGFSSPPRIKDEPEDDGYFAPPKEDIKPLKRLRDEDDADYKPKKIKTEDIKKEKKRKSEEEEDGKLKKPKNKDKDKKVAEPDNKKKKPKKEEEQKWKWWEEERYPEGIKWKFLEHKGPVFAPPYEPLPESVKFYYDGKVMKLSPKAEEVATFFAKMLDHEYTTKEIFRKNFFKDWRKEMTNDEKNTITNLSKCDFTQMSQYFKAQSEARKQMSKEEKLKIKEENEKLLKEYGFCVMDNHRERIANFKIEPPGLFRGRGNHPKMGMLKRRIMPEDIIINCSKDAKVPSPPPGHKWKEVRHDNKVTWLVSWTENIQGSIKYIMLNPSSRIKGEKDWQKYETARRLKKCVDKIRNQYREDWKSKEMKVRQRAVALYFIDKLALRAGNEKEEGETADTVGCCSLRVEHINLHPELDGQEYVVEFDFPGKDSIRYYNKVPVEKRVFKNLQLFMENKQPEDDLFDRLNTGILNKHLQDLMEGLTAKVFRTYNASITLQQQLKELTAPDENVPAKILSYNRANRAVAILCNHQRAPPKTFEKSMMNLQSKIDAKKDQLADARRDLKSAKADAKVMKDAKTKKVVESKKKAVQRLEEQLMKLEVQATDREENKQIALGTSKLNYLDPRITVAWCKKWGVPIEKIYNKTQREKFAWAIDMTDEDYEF
- test description: Inhibition topoisomerase 1 in mouse NIH/3T3 cells assessed as conversion of supercoiled pBR322 DNA to relaxed form
reported property: IC50 (µM)

1) CC[C@@]1(O)C(=O)OCc2c1cc1n(c2=O)Cc2cc3ccccc3nc2-1 :: 12
2) C=C1NC(=O)C(C)C(CCC(C)C(=O)/C=C/C(C)=C/CC(C)CCCCCCC)OC(=O)[C@H](CC(OS(=O)(=O)O)C(N)=O)NC(=O)[C@@H](C)CNC1=O (some centres undefined) :: 47

====

Let's look at some molecules and their measured pIC50.
- target of assay: Type II restriction enzyme BamHI (Bacillus amyloliquefaciens)
- Sequence (P23940 whole entry): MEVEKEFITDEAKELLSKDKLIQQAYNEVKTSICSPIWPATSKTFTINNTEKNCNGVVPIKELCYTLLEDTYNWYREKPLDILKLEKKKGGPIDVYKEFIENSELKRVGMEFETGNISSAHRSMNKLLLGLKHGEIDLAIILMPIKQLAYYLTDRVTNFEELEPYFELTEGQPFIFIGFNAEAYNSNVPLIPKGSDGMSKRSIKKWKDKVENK
- test description: Inhibition of Bacillus amyloliquifaction Bam H1 assessed as undigested supercoiled pBR322 DNA concentration
pIC50: −log10 of the molar value.
reported property: pIC50

1) COc1cccc2c1C(=O)c1c(O)c3c(c(O)c1C2=O)C[C@@](O)(C(=O)CO)C[C@@H]3O[C@H]1C[C@H](N)[C@H](O)[C@H](C)O1 :: < 3.70
2) CC[C@@]1(O)C(=O)OCc2c1cc1n(c2=O)Cc2cc3ccccc3nc2-1 :: < 3.52
3) C=C1NC(=O)C(C)C(CCC(C)C(=O)/C=C/C(C)=C/CC(C)CCCCCCC)OC(=O)[C@H](CC(OS(=O)(=O)O)C(N)=O)NC(=O)[C@@H](C)CNC1=O (some centres undefined) :: 3.73
4) O=C1Oc2cc(O)ccc2/C1=C\c1ccc(O)cc1 :: < 3.40

====

- target of assay: Type II restriction enzyme PstI (Providencia stuartii, UniProt P00640)
- Sequence (P00640 whole entry): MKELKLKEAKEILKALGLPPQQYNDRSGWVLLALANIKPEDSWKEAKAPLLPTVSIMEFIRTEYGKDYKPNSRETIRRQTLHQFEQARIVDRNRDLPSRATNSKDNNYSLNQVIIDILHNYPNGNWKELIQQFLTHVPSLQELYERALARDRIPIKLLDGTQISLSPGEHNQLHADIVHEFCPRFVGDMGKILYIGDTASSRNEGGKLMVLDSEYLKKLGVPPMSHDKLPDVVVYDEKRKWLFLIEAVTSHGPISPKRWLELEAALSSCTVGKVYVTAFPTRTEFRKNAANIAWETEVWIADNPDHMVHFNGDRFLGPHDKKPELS
Let's look at some molecules and their measured IC50.
reported property: IC50

1) O=C1Oc2cc(O)ccc2/C1=C\c1ccc(O)cc1 [ISOAUROSTATIN] :: > 400 µM
2) C=C1NC(=O)C(C)C(CCC(C)C(=O)/C=C/C(C)=C/CC(C)CCCCCCC)OC(=O)[C@H](CC(OS(=O)(=O)O)C(N)=O)NC(=O)[C@@H](C)CNC1=O (some centres undefined) [TOPOSTATIN] :: 19 µM
3) CC[C@@]1(O)C(=O)OCc2c1cc1n(c2=O)Cc2cc3ccccc3nc2-1 [CAMPTOTHECIN] :: > 300 µM
4) COc1cccc2c1C(=O)c1c(O)c3c(c(O)c1C2=O)C[C@@](O)(C(=O)CO)C[C@@H]3O[C@H]1C[C@H](N)[C@H](O)[C@H](C)O1 [DOXORUBICIN] :: > 200 µM

====

Let's look at some compounds and their measured IC50.
- target of assay: UniProt:P00642
- Sequence (P00642 whole entry): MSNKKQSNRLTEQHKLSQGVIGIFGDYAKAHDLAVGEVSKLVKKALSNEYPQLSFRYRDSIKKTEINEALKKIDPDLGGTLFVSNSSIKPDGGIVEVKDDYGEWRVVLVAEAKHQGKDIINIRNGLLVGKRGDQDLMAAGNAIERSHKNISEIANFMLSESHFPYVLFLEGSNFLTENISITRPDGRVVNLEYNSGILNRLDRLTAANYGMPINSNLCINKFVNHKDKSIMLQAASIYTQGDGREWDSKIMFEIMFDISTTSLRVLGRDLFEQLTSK
reported property: IC50

1. O=C1Oc2cc(O)ccc2/C1=C\c1ccc(O)cc1 [ISOAUROSTATIN] :: > 400 µM
2. CC[C@@]1(O)C(=O)OCc2c1cc1n(c2=O)Cc2cc3ccccc3nc2-1 [CAMPTOTHECIN] :: > 300 µM
3. COc1cccc2c1C(=O)c1c(O)c3c(c(O)c1C2=O)C[C@@](O)(C(=O)CO)C[C@@H]3O[C@H]1C[C@H](N)[C@H](O)[C@H](C)O1 [DOXORUBICIN] :: > 200 µM

====

- target of assay: DNA topoisomerase 1 (Homo sapiens)
- Sequence (P11387 whole entry): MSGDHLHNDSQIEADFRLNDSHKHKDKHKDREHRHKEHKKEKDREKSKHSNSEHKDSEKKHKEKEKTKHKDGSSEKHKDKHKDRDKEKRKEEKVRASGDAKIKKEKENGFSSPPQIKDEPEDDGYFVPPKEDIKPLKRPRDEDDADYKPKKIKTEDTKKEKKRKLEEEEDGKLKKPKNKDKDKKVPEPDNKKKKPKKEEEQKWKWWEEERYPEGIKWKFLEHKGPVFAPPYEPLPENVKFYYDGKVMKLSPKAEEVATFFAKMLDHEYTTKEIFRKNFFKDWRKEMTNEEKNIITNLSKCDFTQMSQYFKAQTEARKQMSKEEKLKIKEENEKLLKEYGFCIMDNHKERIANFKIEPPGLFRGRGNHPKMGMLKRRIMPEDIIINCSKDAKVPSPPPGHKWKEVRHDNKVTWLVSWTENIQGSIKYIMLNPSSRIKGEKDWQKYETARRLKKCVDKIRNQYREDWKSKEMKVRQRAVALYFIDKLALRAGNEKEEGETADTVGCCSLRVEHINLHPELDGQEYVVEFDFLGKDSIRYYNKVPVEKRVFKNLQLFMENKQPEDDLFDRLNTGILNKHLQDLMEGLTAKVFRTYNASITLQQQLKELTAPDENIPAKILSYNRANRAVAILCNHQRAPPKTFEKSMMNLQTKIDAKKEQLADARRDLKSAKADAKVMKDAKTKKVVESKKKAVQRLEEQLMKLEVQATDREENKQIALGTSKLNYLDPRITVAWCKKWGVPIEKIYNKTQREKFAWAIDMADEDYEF
- test description: Inhibition topoisomerase 1 in human COLO201 cells assessed as conversion of supercoiled pBR322 DNA to relaxed form
- Type: cell-based
pIC50: −log10 of the molar value.
reported property: pIC50

1. C=C1NC(=O)C(C)C(CCC(C)C(=O)/C=C/C(C)=C/CC(C)CCCCCCC)OC(=O)[C@H](CC(OS(=O)(=O)O)C(N)=O)NC(=O)[C@@H](C)CNC1=O (some centres not stated) :: 4.30
